Assay: folding stability dG unfold from trypsin proteolysis; higher = more stable
Note that class boundaries on folding stability dG unfold are low range: < 0.5 kcal/mol; mid range: ≥ 0.5 kcal/mol and < 1 kcal/mol; high range: ≥ 1 kcal/mol

Reference set (3 entries):
[
  {
    "sequence record": "SAGGMVLEVEFTGPLSEVEAFIEELKAKPGVELLSVEIEVKPLPGPPVRYRVKLEVKIYDPENPVLLSAGGS [r8_374_JUSTAS]",
    "discrete label": "high range"
  },
  {
    "sequence record": "SAGGSAGGSEKVEIEREFKLPDPNGKPFRFTVEIEVEPRNDGLKIEITEVEGPWMRDAIKKLLSAGGSAGGS [r12_743_TrROS]",
    "discrete label": "mid range"
  },
  {
    "sequence record": "SAGGKIKIKSVEVQPNPDGMRKVTLEFQDGGKEHKVEIYVHPGGIMISIPNGKTRTIPWDDLDDIKLSAGGS [r16_593_TrROS]",
    "discrete label": "mid range"
  }
]

Exercise: Class for SDMKIRIDDIDIQPLDEDGQPITINYKIEFGGQPVYFQIEIWVKPDGPVVIKIDIYNPDNGKPFEWTFPISA [r9_241_TrROS] ?
Key: high range

Exercise: Into which category would you place SAGGSAGGSAGKDIAKNIPPGAKILPIEPQPRGGGLYVKIEIEMPDPNGKKEKVTFTFPISAGGSAGGSAGG [r17_140_TrROS] ?
Key: low range

Exercise: Hi there! Could you help me figure out the category for SAGGSAGGSAMKIVEWNEETGELTIELPDGTKITLKVENGEITEVKVEPLPPVPPDLPELKSAGGSAGGSAG [r3_406_TrROS_Hall] please?
Key: mid range
